Measured T/C of individual entries
# System: CD2F1 mice, L1210 leukemia ip, survival T/C
# Test Description: NCI In Vivo Anticancer Drug Screen. Data for tumor model L1210 Leukemia (intraperitoneal) in CD2F1 (CDF1) mice
# Condition Set: endpoint: mean survival time; dose: 12.5 mg/kg/injection; schedule: Q04DX002 (ip); vehicle: saline with Tween-80; higher = longer survival
Inconclusive results and toxic doses are left out.

Some solved cases for reference:
>  <Compound>
CC12CCC(=O)C1O2 (stereo not given)

>  <System>
CD2F1 mice, L1210 leukemia ip, survival T/C

>  <T/C>
103 % of control

$$$$
>  <Compound>
NC(CSS(=O)(=O)O)=NCCCCN=C(N)CSS(=O)(=O)O

>  <System>
CD2F1 mice, L1210 leukemia ip, survival T/C

>  <T/C>
106 % of control

$$$$
>  <Compound>
CC(O)CN=C(N)C(N)=NCC(C)O (stereo not given)

>  <System>
CD2F1 mice, L1210 leukemia ip, survival T/C

>  <T/C>
108 % of control

$$$$

query: Form field: T/C recorded for COc1nn(O)cc2cc(C(=O)O)nc1-2 with CD2F1 mice, L1210 leukemia ip, survival T/C (enter value)
result: 104 % of control

query: Form field: T/C recorded for CC(C)(C)c1cc([N+](C)(C)C)cc(C(C)(C)C)n1 with CD2F1 mice, L1210 leukemia ip, survival T/C (enter value)
result: 96 % of control

* * *

Measured T/C of individual entries
# System: CD2F1 mice, L1210 leukemia ip, survival T/C
# Test Description: NCI In Vivo Anticancer Drug Screen. Data for tumor model L1210 Leukemia (intraperitoneal) in CD2F1 (CDF1) mice
# Condition Set: endpoint: mean survival time; dose: 25.0 mg/kg/injection; schedule: Q01DX009 (ip); vehicle: saline with Tween-80; higher = longer survival
# Description: The antitumor activity of compounds was measured in mice bearing transplantable tumors. Survival or tumor size were measured and the results are expressed as the measurement made in the treated group (T) divided by the measurement made in the vehicle treated control group (C). The tumor model used in this assay is L1210 Leukemia (intraperitoneal) in CD2F1 (CDF1) mice
Toxic doses and inconclusive results are not listed.

Some solved cases for reference:
>  <Molecule>
O=[N+]([O-])c1ccc(/C=N/O)s1

>  <T/C>
98 % of control

$$$$
>  <Molecule>
NC(=S)NN=C1CCCCC1

>  <T/C>
98 % of control

$$$$
>  <Molecule>
O=C(Nc1ccccc1)c1ccc(Cl)c([N+](=O)[O-])c1

>  <T/C>
95 % of control

$$$$
>  <Molecule>
S=C(S)NN1CCCC1

>  <T/C>
101 % of control

$$$$
>  <Molecule>
CC1=CC(=O)C(C(C)C)=CC1=O

>  <T/C>
101 % of control

$$$$

query: Returns the measured T/C for the input molecule. Input: O=C(O)C1C(c2ccccc2)=C(c2ccccc2)c2ccccc21 (centres undefined)
result: 94 % of control

query: Returns the measured T/C for the input molecule. Input: CC(=O)Nc1ccc(OCCOC(=O)Nc2ccc(Cl)cc2C)cc1
result: 95 % of control

query: Returns the measured T/C for the input molecule. Input: CC1(C)N=C(N)N=C(N)N1c1ccc(CCc2ccccc2)cc1
result: 87 % of control

query: Returns the measured T/C for the input molecule. Input: CCCC(C)c1ccccc1O (centres undefined)
result: 102 % of control

meta.source: PubChem BioAssay AID256
